Catalogue of binders with associated SPOT peptide array binding signal intensity
Target: SpSla1-D3
Experiment: SPOT peptide array binding signal intensity (averaged, normalized) (arbitrary units (background-subtracted, floor 0; scale differs between SH3 domains)); higher = stronger binding of the SH3 domain to the peptide
property: SPOT peptide array binding signal intensity

binder | comparison-operator | assay-result
TKRKRPARLIFYDSK | = | 7
GLRRARYKFPGQQKI | = | 13
ISNFVPPNLPMRRFK | = | 32
PPLPRAPPVPPATFE | ≤ | 0
AHFQPQRTAPKPPIS | ≤ | 0
DKSRPPRPPPKPLHL | ≤ | 0
ALFRLSFFFPLDPAY | = | 192

All values here come from the supplement of paper PMC4466140.
